TEST SYSTEM: human AMPK α1β1γ1 enzyme (Homo sapiens, UniProt Q13131+Q9Y478)
Construct: purchased Carna Biosciences, Inc
Sequence (Q13131 10-559 limits assumed): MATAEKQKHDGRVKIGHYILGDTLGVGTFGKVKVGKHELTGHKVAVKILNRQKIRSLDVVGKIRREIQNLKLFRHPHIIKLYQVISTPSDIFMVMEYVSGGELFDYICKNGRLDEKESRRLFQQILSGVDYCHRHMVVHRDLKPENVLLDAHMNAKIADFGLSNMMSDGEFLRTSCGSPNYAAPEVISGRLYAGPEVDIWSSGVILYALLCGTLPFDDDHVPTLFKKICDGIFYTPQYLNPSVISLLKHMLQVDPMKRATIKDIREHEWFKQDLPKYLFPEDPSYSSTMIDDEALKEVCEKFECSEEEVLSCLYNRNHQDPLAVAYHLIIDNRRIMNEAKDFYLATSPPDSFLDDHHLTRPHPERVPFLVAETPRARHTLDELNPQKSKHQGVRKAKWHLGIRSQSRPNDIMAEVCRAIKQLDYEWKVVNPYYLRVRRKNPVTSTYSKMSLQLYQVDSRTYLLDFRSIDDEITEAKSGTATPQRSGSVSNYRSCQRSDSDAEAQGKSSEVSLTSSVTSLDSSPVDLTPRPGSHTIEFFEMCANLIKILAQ
Sequence (Q9Y478 whole entry): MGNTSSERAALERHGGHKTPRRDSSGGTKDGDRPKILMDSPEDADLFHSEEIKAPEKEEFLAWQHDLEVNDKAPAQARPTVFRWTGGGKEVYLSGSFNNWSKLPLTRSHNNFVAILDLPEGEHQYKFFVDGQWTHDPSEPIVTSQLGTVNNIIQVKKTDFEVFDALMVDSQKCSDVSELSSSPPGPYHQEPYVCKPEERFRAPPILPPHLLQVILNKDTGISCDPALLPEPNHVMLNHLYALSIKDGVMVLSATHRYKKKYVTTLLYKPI
Sequence (P54619 whole entry partner): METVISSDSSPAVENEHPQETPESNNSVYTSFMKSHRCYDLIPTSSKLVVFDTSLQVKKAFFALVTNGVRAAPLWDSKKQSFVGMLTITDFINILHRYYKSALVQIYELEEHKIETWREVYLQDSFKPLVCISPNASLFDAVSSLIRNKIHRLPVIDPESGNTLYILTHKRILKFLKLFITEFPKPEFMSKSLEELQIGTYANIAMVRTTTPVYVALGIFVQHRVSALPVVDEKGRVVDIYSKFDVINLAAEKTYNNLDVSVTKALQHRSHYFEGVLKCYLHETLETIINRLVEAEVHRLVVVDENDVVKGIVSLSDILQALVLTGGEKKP
ASSAY OVERVIEW: AMPK activator evaluation, Test Example 1 (mobility shift, FL-Peptide 7)
Type: biochemical
ASSAY CONTEXT: human AMPK α1β1γ1, control without compound = 100%
# true = EC150 (compound concentration showing 150% relative to the control) below 70 nM (exclusive); false = EC150 (compound concentration showing 150% relative to the control) at/above 70 nM

Previously resolved entries follow.
O=C(O)c1ccc(Oc2nc3nc(-c4ccc(N5CCOCC5)cc4)c(Cl)cc3[nH]2)cc1 [Compound B-101]; false
O=P(O)(O)c1cccc(Oc2nc3cc(Cl)c(-c4ccc(N5CCOCC5)cc4)nc3[nH]2)c1 [Compound C-118]; true
CC(=O)NC(C)(C)c1ccc(Oc2nc3nc(-c4ccc(C5(CO)COC5)cc4)c(Cl)cc3[nH]2)cc1 [Compound D-110]; false
CC(=O)NC(C)(C)c1ccc(Oc2nc3nc(-c4ccc(C5=CCOCC5)cc4)c(Cl)cc3[nH]2)cc1 [Compound D-73]; true
O=C(O)C1(c2ccc(Oc3nc4nc(-c5ccc(N6CCCC6)cc5)c(Cl)cc4[nH]3)cc2)CC1 [Compound C-94]; true

Q: Criterion: EC150 (compound concentration showing 150% relative to the control) strictly below 70 nM. Is it met by Cc1ccc(Oc2nc3nc(-c4ccc(N5CCCCC5=O)cc4)c(Cl)cc3[nH]2)cc1C(=O)O [Compound C-88] ?
A: false

Q: I'd appreciate it if you could check whether Cc1ccc(Oc2nc3nc(-c4ccccc4)c(Cl)cc3[nH]2)cc1C(=O)O [Compound B-10] has EC150 (compound concentration showing 150% relative to the control) smaller than 70 nM.
A: false

Q: Take the molecule OCc1ccc(Oc2nc3nc(-c4ccc(N5CCOCC5)cc4)c(Cl)cc3[nH]2)cc1 [Compound B-131] and say whether its EC150 (compound concentration showing 150% relative to the control) is less than 70 nM.
A: true
